Source: patent US20220296726A1

# Target desc: T1, Human TREM2 extracellular domain (ECD), residues 19-131, C-terminally biotinylated, deglycosylated (human, UniProt Q9NZC2 19-131, C-terminally biotinylated; deglycosylated)
# T1 construct: range 19-131; loaded on Superstreptavidin biosensors; also called triggering receptor expressed on myeloid cells 2; Human BLI (deglycosylated)
# T1 sequence (looked up): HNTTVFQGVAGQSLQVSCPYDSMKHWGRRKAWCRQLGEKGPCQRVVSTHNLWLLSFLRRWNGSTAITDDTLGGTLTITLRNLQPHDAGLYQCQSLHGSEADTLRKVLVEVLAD
# Assay method text: BLI steady state, deglycosylated human TREM2 ECD on sensor
pKd: −log10 of the molar value. *1 amine or outer side, *2 acyl side, *3 side chain or, on linkers, in order; H or OH if unused. Bridges are numbered along the chain shown (N, C = ends). Where no end group is shown, it is not given here. [ ]: non-standard residue; d: D form. TATA = O=C(CC[*:1])N1CN(C(=O)CC[*:2])CN(C(=O)CC[*:3])C1; 2Nal = N[C@@H](Cc1ccc2ccccc2c1)C(=O)O
Measured pKd values are reported for all entries that follow.
Assay metric: pKd

>  <Binder>
Ac-CSEYCFWPFYFC (linker 1-5-12 via TATA) [BCY20576]

>  <Data value>
5.87

$$$$
>  <Binder>
CSEYCXWPFYHC (N-terminal acetyl (Ac); CiSEYCii[2FPhe]WPFYHCiii; Ci, Cii, Ciii on TATA scaffold) [BCY20051]

>  <Data value>
5.69

$$$$
>  <Binder>
CSEYCFWXFYHC (N-terminal acetyl (Ac); CiSEYCiiFW[Aze]FYHCiii; Ci, Cii, Ciii on TATA scaffold) [BCY20068]

>  <Data value>
5.60

$$$$
>  <Binder>
CSEYCFXPFYHC (N-terminal acetyl (Ac); CiSEYCiiF[6FTrp]PFYHCiii; Ci, Cii, Ciii on TATA scaffold) [BCY20057]

>  <Data value>
5.59

$$$$
>  <Binder>
ACSEYCFWPFWNCA (Ci, Cii, Ciii on TATA scaffold) [BCY17671]

>  <Data value>
6.05

$$$$
>  <Binder>
Ac-CSEYCF[2Nal]PFYAC (linker 1-5-12 via TATA) [BCY19296]

>  <Data value>
5.57

$$$$
>  <Binder>
CSEYCFWPFYXC (N-terminal acetyl (Ac); CiSEYCiiFWPFY[HArg]Ciii; Ci, Cii, Ciii on TATA scaffold) [BCY20575]

>  <Data value>
6.43

$$$$
